Target: T1, BAM3 extracellular domain (BAM3-ECD) (Arabidopsis thaliana, UniProt O65440 30-651)
T1 chain: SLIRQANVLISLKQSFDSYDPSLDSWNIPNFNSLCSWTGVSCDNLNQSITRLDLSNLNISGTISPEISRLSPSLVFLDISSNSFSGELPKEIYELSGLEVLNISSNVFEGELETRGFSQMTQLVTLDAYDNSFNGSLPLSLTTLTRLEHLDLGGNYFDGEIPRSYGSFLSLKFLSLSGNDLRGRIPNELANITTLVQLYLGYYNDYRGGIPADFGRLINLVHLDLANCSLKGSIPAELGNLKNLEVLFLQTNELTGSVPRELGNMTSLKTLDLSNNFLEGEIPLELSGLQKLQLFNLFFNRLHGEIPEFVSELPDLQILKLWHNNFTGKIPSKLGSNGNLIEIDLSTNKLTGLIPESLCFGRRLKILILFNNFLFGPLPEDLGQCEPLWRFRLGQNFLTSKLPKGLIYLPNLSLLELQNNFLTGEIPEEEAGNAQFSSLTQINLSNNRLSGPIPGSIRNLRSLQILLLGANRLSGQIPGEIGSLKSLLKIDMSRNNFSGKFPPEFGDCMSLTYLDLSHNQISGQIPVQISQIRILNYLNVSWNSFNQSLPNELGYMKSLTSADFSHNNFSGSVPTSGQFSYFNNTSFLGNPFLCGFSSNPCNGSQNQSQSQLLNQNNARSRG
Test: ITC
Where no end group is shown, it is not given here. [ ]: non-standard residue; d: D form. Hyp = O=C(O)[C@@H]1C[C@@H](O)CN1
Assign Kd to each entry below.
Number only, in µM; omit the unit.

Indicate the recorded Kd value for this binder: YRRVRRGSDPIHN [N-terminally tyrosine-modified CLE45 peptide (Y-CLE45)]
12.7

Quote Kd reported for RTV[Hyp]SG[Hyp]DPLHHH (CLAVATA3 (CLV3) mature CLE peptide of Arabidopsis, 13 residues as printed for the ITC; the ITC peptide is printed with three C-terminal histidines; source: synthetic peptide (Peptide Specialty Laboratories, Heidelberg)) [CLV3 peptide (ITC)] please.
8.62
